Measured melting point by item

| compound | melting point |
| --- | --- |
| Cc1cc(C2=NOC(c3cc(Cl)cc(Cl)c3)(C(F)(F)F)C2)ccc1F (stereo not given) | 72 to 74 °C |
| BrCc1cc2ccccc2s1 | 107 to 109 °C |
| Cc1ccc(S(=O)(=O)OCCc2ccc3[nH]cc(S(=O)(=O)c4ccccc4)c3c2)cc1 | 60 to 63 °C |
| CNC(=O)c1cc(Cl)cc(C)c1NC(=O)c1cc(Br)nn1-c1ncccc1Cl | 162 to 164 °C |
| COc1ccc(F)cc1C(C)(C)CC(O)(Cn1ccc(=O)c2ccccc21)C(F)(F)F (stereo not given) | 170 to 172 °C |
| Cc1ccc(-c2cn3c(n2)sc2cc(O)ccc23)cc1 | 275 to 277 °C |
| COc1cc(C(F)(F)F)nn1-c1ccc(NC(=O)c2cccnc2F)cc1 | 153 to 154 °C |
| CP1(=O)c2ccccc2CN1c1cccc(C(F)(F)F)c1 (stereo not given) | 161 to 163 °C |
| O=C(O)COc1ccc(C2=CC(=O)CCC2C2CCCC2)c(Cl)c1Cl (stereo not given) | 206 to 207 °C |
| CCOC(=O)CC1CN=C(c2cc3cccc(N(C)S(=O)(=O)c4cccs4)c3[nH]2)S1 (stereo not given) | 101 to 102 °C |

###

Measured melting point accompanies every entry in the list below.
readout type: melting point

| compound | readout type | result value |
| --- | --- | --- |
| CC(=O)C(C#N)=Cc1ccccc1 | melting point | 83 to 84 °C |
| CC1=C(C(=O)OC(C)(C)C)C(c2ccc(Cl)cc2)C(C(=O)OC(C)(C)C)=C(C)N1 | melting point | 192 °C |
| CCN1Cc2ccccc2C(=O)c2cc(CC(=O)O)ccc21 | melting point | 141 to 144 °C |
| Cc1cccc(NC(=O)c2cc(Cl)cc(C)n2)c1 | melting point | 95 °C |
| CCSC1(CCO)C(=O)Nc2ccc(Cl)cc21 (stereo not given) | melting point | 132 to 135 °C |
| COC(=O)C(=O)c1ccc(OCCOc2cccc(F)c2)cc1 | melting point | 68 to 69 °C |
| Cc1ccc(S(=O)(=O)OCC2Cc3c(C(F)(F)F)ccc(Cl)c3O2)cc1 (stereo not given) | melting point | 89 to 92 °C |
| C#Cc1cccc(Oc2ccc([N+](=O)[O-])c([N+](=O)[O-])c2)c1 | melting point | 68 to 69 °C |
| O=[N+]([O-])c1ccccc1SC1SCC(O)C(O)C1O (stereo not given) | melting point | 185 °C |
| CC(C)(C)OC(=O)NCCNC(=O)C1CCN(C(=O)OC(C)(C)C)CC1 | melting point | 172 to 174 °C |

###

# melting point per entry

| compound | melting point |
| --- | --- |
| CCCCN1C(=O)NC(Cc2ccccc2)C1=O (stereo unspecified) | 143 °C |
| Cc1cc(-n2cnnn2)cc2c1NC(=O)CC2 | 271 to 272 °C |
| COc1ccc(Cn2nnc(-c3ccc(Cl)cc3Cl)c2N)cc1 | 134 to 137 °C |
| Cc1ccc(NCCCCOc2ccc3ccccc3c2)cc1 | 98 °C |
| Nc1nc(OCc2ccccc2)nc2c1ncn2C1OC(CO)C(O)C1O (stereo unspecified) | 178 to 179 °C |
| Cc1cccc([N+](=O)[O-])c1C=NO | 190 to 192 °C |
